TARGET OR TEST SYSTEM: UniProtKB P07900
ASSAY EXPLANATION: Fluorescence polarization assay, binding ability to HSP90, benzamide compounds
CONDITION INFO: GA-FITC 100 nM; read-out: HSP90 FP) (IC50; nM)
Overview of reported IC50 across a group of molecules:
Write the number in nM without appending the unit.

[[record]]
molecule = "CNC(=O)c1ccc(CN(C)C(=O)c2cc(Cl)c(O)cc2O)cc1 [Compound 21a]"
readout = "IC50"
numeric_value = 496

[[record]]
molecule = "CCNC(=O)c1ccc(CN(C)C(=O)c2cc(C(C)C)c(O)cc2O)cc1 [Compound 21e]"
readout = "IC50"
numeric_value = 6.5

[[record]]
molecule = "COc1cc(CN(C)C(=O)c2cc(Cl)c(O)cc2O)cc(OC)c1OC [Compound 14f]"
readout = "IC50"
numeric_value = 1460


Identify IC50 associated with the molecule CNC(=O)c1ccc(CN(C)C(=O)c2cc(C(C)C)c(O)cc2O)cc1 [Compound 21d] 11.4

Return IC50 for the following molecule: COc1ccc(CN(C)C(=O)c2cc(Cl)c(O)cc2O)cc1OC [Compound 14d] 362

----------
System: H1975
ASSAY EXPLANATION: MTS cell proliferation / survival assay
Format: cell-based
CONDITION INFO: Homo sapiens, NCI-H1975, read-out: IC50 for H1975
READOUT: IC50 (µM)
All answers are understood in µM, so give the number only.

Annotate the compound CC(C)c1cc(C(=O)N2CCN(C)CC2c2ccccc2)c(O)cc1O (stereo not shown) with its measured IC50. 98

----------
TARGET OR TEST SYSTEM: HSP90α (Homo sapiens (Human), UniProt P07900)
ASSAY EXPLANATION: Fluorescence polarization assay, binding ability to HSP90, benzamide compounds
CONDITION INFO: GA-FITC 100 nM; read-out: HSP90 FP) (IC50; nM)
READOUT: IC50
Reply with the number, then its unit.

[[record]]
compound = "CCCNC(=O)c1ccc(CN(C)C(=O)c2cc(Cl)c(O)cc2O)cc1 [Compound 21c]"
target_or_test_system = "HSP90α (Homo sapiens (Human), UniProt P07900)"
result = "454 nM"


Return IC50 (reported value) for this compound: COc1ccc(CN(C)C(=O)c2cc(Cl)c(O)cc2O)cc1 [Compound 14c] 135 nM

Specify IC50 for CN(Cc1ccc2c(c1)OCO2)C(=O)c1cc(Cl)c(O)cc1O [Compound 14e] and stop. 585 nM

Tell me IC50 reported for CN(Cc1ccccc1)C(=O)c1cc(Cl)c(O)cc1O [Compound 14b] 413 nM

Report IC50, nothing else, for this compound: CCNC(=O)c1ccc(CN(C)C(=O)c2cc(Cl)c(O)cc2O)cc1 [Compound 21b] 612 nM

// fetch IC50 given entry Cc1ccc(CN(C)C(=O)c2cc(Cl)c(O)cc2O)cc1 [Compound 16b] 558 nM

Note down IC50 recorded for CCCNC(=O)c1ccc(CN(C)C(=O)c2cc(C(C)C)c(O)cc2O)cc1 [Compound 21f] 5.3 nM

Name the recorded IC50 of the compound listed here: COc1cc(CN(C)C(=O)c2cc(Cl)c(O)cc2O)c(Cl)c(OC)c1OC [Compound 14g] 429 nM

Could you please provide reported IC50 for COc1cc(CN(C)C(=O)c2cc(Cl)c(O)cc2O)c(Br)c(OC)c1OC [Compound 14h] ? Thanks! 528 nM

----------
ASSAY EXPLANATION: LogP
Assay type: physicochemical
CONDITION INFO: called measured values of LogP
Classify: Criterion met when logP is strictly less than 0.8; Criterion not met when logP is not.

The following molecules have reported results that may help.
[[record]]
molecule = "O=C1CCN(C(=O)c2cc(Cl)c(O)cc2O)C1 [Compound 11h]"
group_label = "Criterion not met"

[[record]]
molecule = "O=C1CN(C(=O)c2cc(Cl)c(O)cc2O)CCN1 [Compound 11g]"
group_label = "Criterion met"

[[record]]
molecule = "O=C(c1cc(Cl)c(O)cc1O)N1CCCCC1 [Compound 11b]"
group_label = "Criterion not met"

[[record]]
molecule = "O=C(c1cc(Cl)c(O)cc1O)N1CCCC1 [Compound 11a]"
group_label = "Criterion not met"

[[record]]
molecule = "O=C(c1cc(Cl)c(O)cc1O)N1CCNCC1 [Compound 11d]"
group_label = "Criterion met"

[[record]]
molecule = "O=C(c1cc(Cl)c(O)cc1O)N1CCOCC1 [Compound 11c]"
group_label = "Criterion met"

[[record]]
molecule = "CC(C)c1cc(C(=O)N2CCN(C)CC2c2ccccc2)c(O)cc1O (centres unmarked) [Compound 17]"
group_label = "Criterion not met"

[[record]]
molecule = "O=C1CCN(C(=O)c2cc(Cl)c(O)cc2O)CC1 [Compound 11i]"
group_label = "Criterion met"


Find out if reported logP for CC(=O)N1CCN(C(=O)c2cc(Cl)c(O)cc2O)CC1 [Compound 11f] is less than 0.8 Criterion met

Bench note: check whether CN1CCN(C(=O)c2cc(Cl)c(O)cc2O)CC1 [Compound 11e] shows logP below 0.8 Criterion not met

Identify whether the molecule CN1CCN(C(=O)c2cc(Cl)c(O)cc2O)C(c2ccccc2)C1 (centres unmarked) [Compound 11j] records logP below 0.8. Criterion not met
